Attribution: ChEMBL document CHEMBL3232986

experiment: Plasma concentration in rat at 10 mg/kg, po after 6 hrs; format: ADME, organism-based; set-up: dose 10 mg/kg, route oral; conditions: plasma
RECORDED_METRIC: log10(concentration at 6 h) (log10 of the value in nM)
Friendly reminder: values = log10 of concentration at 6 h, unit nM.

Here's what some known entries look like.
COc1ccc2c(c1)[C@@H]1C[C@]1(C(=O)N1CC34COCC3(CN(C)C4)C1)Cn1c-2c(C2CCCCC2)c2ccc(C(=O)NS(=O)(=O)C(C)C)cc21 (stereo partly specified) ... 0.30
COc1ccc2c(c1)[C@@H]1C[C@]1(C(=O)N1CC34CN(C)CC3(CN(C)C4)C1)Cn1c-2c(C2CCCCC2)c2ccc(C(=O)NS(=O)(=O)C(C)C)cc21 (stereo partly specified) ... 0.60

Consider the compound COc1ccc2c(c1)[C@@H]1C[C@]1(C(=O)N1CC34CCCC3(CN(C)C4)C1)Cn1c-2c(C2CCCCC2)c2ccc(C(=O)NS(=O)(=O)C(C)C)cc21 (stereo partly specified) and give its recorded log10(concentration at 6 h).
1.38

Tell me its log10(concentration at 6 h) given CCOCCN1CC23COCC2(C1)CN(C(=O)[C@]12C[C@H]1c1cc(OC)ccc1-c1c(C4CCCCC4)c4ccc(C(=O)NS(=O)(=O)C(C)C)cc4n1C2)C3 (stereo partly specified) as the entry.
0.90

Please supply the value of reported log10(concentration at 6 h) for the item COc1ccc2c(c1)[C@@H]1C[C@]1(C(=O)N1CC34CCC3(CN(C)C4)C1)Cn1c-2c(C2CCCCC2)c2ccc(C(=O)NS(=O)(=O)C(C)C)cc21 (stereo partly specified)
0.78

Return log10(concentration at 6 h) for the following compound: CCN1CC23COCC2(C1)CN(C(=O)[C@]12C[C@H]1c1cc(OC)ccc1-c1c(C4CCCCC4)c4ccc(C(=O)NS(=O)(=O)C(C)C)cc4n1C2)C3 (stereo partly specified)
0.78
